# Assay Details: Inhibition of beta-lactamase NDM1 (unknown origin) expressed in Escherichia coli BL21(DE3) using cefotaxime/nitrocefin as substrate by measuring substrate hydrolysis at 200 uM by spectrophotometric analysis
Calls of active or inactive are those of the source. The calls are words filed in the database; no cut-off is given here.
Measure: inhibition

Oc1ccc(/C=N/n2c(-c3cccc4ccccc34)n[nH]c2=S)c(O)c1
inactive
S=c1[nH]nc(Cc2ccc3ccccc3c2)n1/N=C/c1ccc(OCc2ccccc2)cc1
inactive
O=C(O)c1ccccc1/C=N/n1c(-c2ccccn2)n[nH]c1=S
60%
Fc1cccc(-c2n[nH]c(=S)n2/N=C/c2ccc(OCc3ccccc3)cc2)c1
inactive
O=C(O)c1ccccc1/C=N/n1c(-c2ccccc2O)n[nH]c1=S
inactive
Cc1ccccc1-c1n[nH]c(=S)n1/N=C/c1ccccc1O
inactive
Cc1ccccc1-c1n[nH]c(=S)n1/N=C/c1ccc(F)cc1
60%
Oc1ccc(/C=N/n2c(-c3cccc(Cl)c3)n[nH]c2=S)c(O)c1
50%

Query: Value lookup for inhibition; key = S=c1[nH]nc(-c2cc3ccccc3[nH]2)n1/N=C/c1ccc(OCc2ccccc2)cc1
Response: inactive

Query: Value lookup for inhibition; key = Cc1ccccc1-c1n[nH]c(=S)n1/N=C/c1cnc[nH]1
Response: inactive

Query: Value lookup for inhibition; key = Cc1ccccc1-c1n[nH]c(=S)n1/N=C/c1cc(O)ccc1[N+](=O)[O-]
Response: inactive

Query: Value lookup for inhibition; key = Cc1ccccc1-c1n[nH]c(=S)n1/N=C/c1ccccc1[N+](=O)[O-]
Response: inactive

Query: Value lookup for inhibition; key = O=C(O)c1ccccc1/C=N/n1c(-c2ccncc2)n[nH]c1=S
Response: 50%

Query: Value lookup for inhibition; key = Oc1ccc(/C=N/n2c(-c3ccccc3O)n[nH]c2=S)c(O)c1
Response: inactive

From: ChEMBL document CHEMBL4706580
